Data provenance: the SangsterLogP compilation

Below, each entry is listed with its recorded logP.
Provide a numeric answer; units are not to be included.

Recorded logP, per entry:
COC1=CC(=O)C[C@@H](C)[C@]12Oc1c(Cl)c(OC)cc(OC)c1C2=O : 2.18
Cc1cccc(O)c1 : 1.96
NC(N)=S : -1.08
CCCCNc1ccc(C(=O)OCCN(C)C)cc1 : 3.51
CNS(=O)(=O)c1ccc(N)cc1 : -0.01
CNC(=O)Oc1ccc(C)c(C)c1 : 2.09
COc1ccc(NS(=O)(=O)c2ccc(N)cc2)cc1 : 1.51
CC(=O)S[C@@H]1CC2=CC(=O)CC[C@]2(C)[C@H]2CC[C@@]3(C)[C@@H](CC[C@@]34CCC(=O)O4)[C@H]12 : 2.78
COC(=O)C(C#N)=NNc1cc(Cl)cc(Cl)c1 : 4.5
CCCCCO : 1.51

## Input Entry `CNC(=O)Oc1cccc(N(C)C)c1` : reported logP = ?
## Output 1.43

## Input Entry `CC(C)(C)CO` : reported logP = ?
## Output 1.31

## Input Entry `C=CCNCCC` : reported logP = ?
## Output 1.33

## Input Entry `CCOc1ccc(OC(=O)NC)cc1` : reported logP = ?
## Output 1.63

====

Lab note: anything with logP at or over 1 counts as Criterion met; the rest go in Criterion not met.

NC(=O)NO : Criterion not met
CCOC(=O)C(C#N)=NNc1cc(Cl)c(Cl)c(Cl)c1 : Criterion met
CO : Criterion not met
CBr : Criterion met
C=C : Criterion met
Cc1cc2ccccc2n1C : Criterion met
Nc1ccc(Oc2ccccc2)cc1 : Criterion met
NCCc1ccc(O)c(O)c1 : Criterion not met
CC/C(=C(/CC)c1ccc(O)cc1)c1ccc(O)cc1 : Criterion met
CCOC(=O)c1ccccn1 : Criterion not met

## Input Please check the record `O=[N+]([O-])/C=C/c1cccc(O)c1` and state if its logP is at or above 1.
## Output Criterion met

====

Below, each entry is listed with its recorded logP.
Provide a numeric answer; units are not to be included.

Recorded logP, per entry:
O=C1CC(=O)NC(=O)N1 : -1.47
[O-][n+]1cccc2ccccc21 : 0.36
O=[N+]([O-])c1ccc(Cl)cc1 : 2.39
CO/N=C/c1ccccc1 : 2.53
Cc1ccc(N(C)C)cc1 : 2.81
Clc1ccc(Cl)cc1 : 3.44
CNc1ccccc1 : 1.66
OCc1ccc(O)cc1 : 0.25
CC(C)n1nnc2ccccc21 : 1.98
C(=C\c1ccccc1)/c1ccccc1 : 4.81

## Input Entry `Nc1ccc(C(F)(F)F)cc1` : reported logP = ?
## Output 1.95

## Input Entry CC1(C)S[C@@H]2[C@H](NC(=O)C(C(=O)O)c3ccccc3)C(=O)N2[C@H]1C(=O)O (some centres not stated) : reported logP = ?
## Output 1.13

## Input Entry `CC(=O)Oc1ccccc1C(=O)O` : reported logP = ?
## Output 1.19

## Input Entry `c1ccc2[nH]nnc2c1` : reported logP = ?
## Output 1.44

====

Below, each entry is listed with its recorded logP.
Provide a numeric answer; units are not to be included.

Recorded logP, per entry:
O=C1CN=C(c2ccccc2)c2cc([N+](=O)[O-])ccc2N1 : 2.25
CN(C)S(=O)(=O)c1ccc(N)cc1 : 0.67
COc1cccc(N)c1 : 0.93
COc1ccc2c(c1)N(CCCN(C)C)c1ccccc1S2 : 4.9
Nc1ccc(C(=O)O)c(O)c1 : 0.89

## Input Entry `NCCc1c[nH]cn1` : reported logP = ?
## Output -0.7

## Input Entry `Cn1c([N+](=O)[O-])cnc1COC(N)=O` : reported logP = ?
## Output -0.38

## Input Entry `CI` : reported logP = ?
## Output 1.51
